System: Yellow Fever Mosquito "YFM" (Aedes aegypti)
Type: in vivo
test-parameters: about 1 day-old larvae, 96-well plate, room temperature, 3 days, mortality
Protocol: Certain molecules disclosed in this document were tested against YFM using procedures described in the following paragraph. In the reporting of the results, the “YFM Rating Table” was used (See Table Section). […] The day before plates are to be treated, mosquito eggs are placed in Millipore water containing liver powder to begin hatching (4 g. into 400 mL). […] After 3 days, each well is observed and scored based on mortality.
readout-name: YFM % Control (or Mortality) rating

CC(Cc1ccc(-c2ncn(-c3ccc(OC(F)(F)F)cc3)n2)cc1)NC(=O)/N=C1\SCC(=O)N1c1ccc(F)cc1C(C)C (stereo not drawn) [P33] = A (80-100)
COc1ccc(C(C)C)c(N2C(=O)CS/C2=N\C(=O)NCCCCc2ccc(-c3ncn(-c4ccc(OC(F)(F)F)cc4)n3)cc2)c1 [P156, P682] = A (80-100)
CC(C)c1ccccc1N1C(=O)CS/C1=N\C(=O)NCCCCc1ccc(-c2ncn(-c3ccc(OC(F)(F)F)cc3)n2)cc1 [P146, P208] = A (80-100)

====

System: Yellow Fever Mosquito "YFM" (Aedes aegypti)
Assay type: in vivo
test-parameters: about 1 day-old larvae, 96-well plate, room temperature, 3 days, mortality
Procedure: Certain molecules disclosed in this document were tested against YFM using procedures described in the following paragraph. In the reporting of the results, the “YFM Rating Table” was used (See Table Section). […] The day before plates are to be treated, mosquito eggs are placed in Millipore water containing liver powder to begin hatching (4 g. into 400 mL). […] After 3 days, each well is observed and scored based on mortality.
readout-name: YFM % Control (or Mortality) rating

CC(C)c1cc(F)ccc1N1C(=O)CS/C1=N\C(=O)NCCc1ccc(-c2ncn(-c3ccc(OC(F)(F)F)cc3)n2)cc1 = A (80-100)
COc1ccc(N2C(=O)CS/C2=N\C(=O)NCCc2ccc(-c3ncn(-c4ccc(OC(F)(F)F)cc4)n3)cc2)c(C)c1 = A (80-100)
Cc1ccc(C(C)C)c(N2C(=O)C(C)S/C2=N\C(=O)NCCc2ccc(-c3ncn(-c4ccc(OC(F)(F)F)cc4)n3)cc2)c1 (stereo not drawn) = A (80-100)
Cc1ccc(C(C)C)c(NC(=S)NC(=O)NCCCc2ccc(-c3ncn(-c4ccc(OC(F)(F)F)cc4)n3)cc2)c1 = A (80-100)
CCc1ccccc1N1C(=O)CS/C1=N\C(=O)NCCCCc1ccc(-c2ncn(-c3ccc(OC(F)(F)F)cc3)n2)cc1 = A (80-100)

Request: Request - read-out YFM % Control (or Mortality) rating | tested on Yellow Fever Mosquito "YFM" (Aedes aegypti) | molecule CCCc1ccc(C)cc1N1C(=O)CS/C1=N\C(=O)NCCCCc1ccc(-c2ncn(-c3ccc(OC(F)(F)F)cc3)n2)cc1
Response: A (80-100)

====

Tested on: Yellow Fever Mosquito "YFM" (Aedes aegypti)
Type: in vivo
test-parameters: about 1 day-old larvae, 96-well plate, room temperature, 3 days, mortality
readout-name: YFM % Control (or Mortality) rating

Consider the worked cases shown below.
CC(C)c1cc(F)ccc1N1C(=O)CS/C1=N\C(=O)NCCCCc1ccc(-c2ncn(-c3ccc(OC(F)(F)F)cc3)n2)cc1 = A (80-100)
Cc1ccc(C(C)C)c(N2C(=O)CS/C2=N\C(=O)NCC(C)c2ccc(-c3ncn(-c4ccc(OC(F)(F)F)cc4)n3)cc2)c1 (centres unmarked) = A (80-100)
CCC(CNC(=O)/N=C1\SCC(=O)N1c1ccccc1C(C)C)c1ccc(-c2ncn(-c3ccc(OC(F)(F)F)cc3)n2)cc1 (centres unmarked) = A (80-100)
CCc1cc(C)ccc1N1C(=O)CS/C1=N\C(=O)NCCc1ccc(-c2ncn(-c3ccc(OC(F)(F)F)cc3)n2)cc1 = A (80-100)
Cc1ccccc1N1C(=O)CS/C1=N\C(=O)NCCCCc1ccc(-c2ncn(-c3ccc(OC(F)(F)F)cc3)n2)cc1 = A (80-100)
COc1ccc(C(C)C)c(N2C(=O)CS/C2=N\C(=O)NCCc2ccc(-c3ncn(-c4ccc(OC(F)(F)F)cc4)n3)cc2)c1 = A (80-100)
CCC(CNC(=O)/N=C1\SCC(=O)N1c1cc(OC)ccc1C(C)C)c1ccc(-c2ncn(-c3ccc(OC(F)(F)F)cc3)n2)cc1 (centres unmarked) = A (80-100)
Cc1ccc(N2C(=O)CS/C2=N\C(=O)NCCc2ccc(-c3ncn(-c4ccc(OC(F)(F)F)cc4)n3)cc2)c(C(C)C)c1 = A (80-100)

Request: Request - read-out YFM % Control (or Mortality) rating | tested on Yellow Fever Mosquito "YFM" (Aedes aegypti) | compound CC(C)c1ccccc1NC(=S)NC(=O)NCc1ccc(-c2ncn(-c3ccc(OC(F)(F)F)cc3)n2)cc1
Response: A (80-100)

Request: Request - read-out YFM % Control (or Mortality) rating | tested on Yellow Fever Mosquito "YFM" (Aedes aegypti) | compound CCc1ccc(C)cc1N1C(=O)CS/C1=N\C(=O)NCCc1ccc(-c2ncn(-c3ccc(OC(F)(F)F)cc3)n2)cc1
Response: A (80-100)

Request: Request - read-out YFM % Control (or Mortality) rating | tested on Yellow Fever Mosquito "YFM" (Aedes aegypti) | compound CCCc1ccc(C)cc1N1C(=O)CS/C1=N\C(=O)NCCc1ccc(-c2ncn(-c3ccc(OC(F)(F)F)cc3)n2)cc1
Response: A (80-100)

Request: Request - read-out YFM % Control (or Mortality) rating | tested on Yellow Fever Mosquito "YFM" (Aedes aegypti) | compound Cc1ccc(C(C)C)c(N2C(=O)CS/C2=N\C(=O)NCCCCc2ccc(-c3ncn(-c4ccc(C(F)(F)F)cc4)n3)cc2)c1
Response: A (80-100)

Request: Request - read-out YFM % Control (or Mortality) rating | tested on Yellow Fever Mosquito "YFM" (Aedes aegypti) | compound Cc1ccc(C(C)C)c(N2C(=O)CS/C2=N\C(=O)NCCc2ccc(-c3ncn(-c4ccc(OC(F)(F)C(F)(F)F)cc4)n3)cc2)c1
Response: A (80-100)
